Tested on: KYSE-180 (Esophageal Squamous Cell Carcinoma);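 also: after 72 h of two-drug dosing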
protocol text: Bliss excess, mean over the matrix (fraction); higher = more synergy

| compound | Bliss excess |
| --- | --- |
| COc1nnc2ccc(N3CCC(c4ccc(OCCN5CCN(C)C(=O)[C@H]5C)cc4)CC3)nn12 [AZD5153] + CC1(C)CCC(CN2CCN(c3ccc(C(=O)NS(=O)(=O)c4ccc(NCC5CCOCC5)c([N+](=O)[O-])c4)c(Oc4cnc5[nH]ccc5c4)c3)CC2)=C(c2ccc(Cl)cc2)C1 [Venetoclax] (first compound max 1 µM, 7x7, partner max 1 µM) | -0.0193 |
| CC1(C)CCC(CN2CCN(c3ccc(C(=O)NS(=O)(=O)c4ccc(NCC5CCOCC5)c([N+](=O)[O-])c4)c(Oc4cnc5[nH]ccc5c4)c3)CC2)=C(c2ccc(Cl)cc2)C1 [Venetoclax] + Cn1cnc2c(F)c(Nc3ccc(Br)cc3Cl)c(C(=O)NOCCO)cc21 [Selumetinib] (first compound max 1 µM, 7x7, partner max 3 µM) | -0.0128 |
| CC1(C)CCC(CN2CCN(c3ccc(C(=O)NS(=O)(=O)c4ccc(NCC5CCOCC5)c([N+](=O)[O-])c4)c(Oc4cnc5[nH]ccc5c4)c3)CC2)=C(c2ccc(Cl)cc2)C1 [Venetoclax] + COc1cc(Nc2ncc3c(n2)-c2ccc(Cl)cc2C(c2c(F)cccc2OC)=NC3)ccc1C(=O)O [Alisertib] (first compound max 1 µM, 7x7, partner max 10 µM) | 0.0114 |
